The reported measurements were obtained from ChEMBL document CHEMBL1201862.

Tested on: SK-MEL-28
Test details: NCI tumour cell line growth inhibition, 48 h
Counter-ions that a name gives are not always drawn. Calls of active or inactive are those of the source. Rule as the data show it: active = GI50 up to about 1.1 µM and inactive = higher. Non-standard residues stand in square brackets, D forms with d. Residues, ends and D or L forms follow the SMILES beside them. β3hI = CC[CH](C)[CH](N)CC(=O)O
Hello, when you answer, please use one of the following outcomes: yes = active, no = inactive

Request: Write down the call the test reported for this molecule. Item: OC(c1ccccc1)c1c(-c2ccccc2)[nH]c(-c2ccccc2)c1C(O)c1ccccc1 (stereo not drawn)
Result: no

Request: What did this assay record as the result for O=C(O)CCC(NC(=O)c1ccc(Nc2cnc3ccc(C(F)(F)F)cc3n2)cc1)C(=O)O (stereo not drawn) ?
Result: no

Request: Give the logged outcome of this assay for the following molecule: `CC(=O)C1=C(C)Cn2c(=O)c3ccccc3c(=O)n2C1`
Result: no

Request: Test call for this molecule, please: CC1=NN(c2cccc(Cl)c2)C2(C1)SCC(=O)N2c1nc2ccccc2s1 (stereo not drawn)
Result: no

Request: Could you check what this test reported for `COc1ccc(NC(=S)N/N=C/c2c(C)n(C)n(-c3ccccc3)c2=O)cc1` ?
Result: no

Request: Can you look up the reported call for `COC1=C(Br)C(=O)c2nc(C)ccc2C1=O` for me?
Result: no

Request: Give the logged outcome of this assay for the following molecule: `O=C1Nc2ccccc2S/C1=C\c1ccccc1C(F)(F)F`
Result: no

Request: # fetch the recorded call for COC(=O)C1=C(OC(=O)/C=C/c2ccc(Cl)cc2)C(C(=O)OC)[C@@]2(O)[C@@H](C(=O)OC)[C@H](C)C[C@@H]1[C@@H]2C(=O)OC (stereo partly drawn) here
Result: no

Request: // return assay outcome for `Cc1ccc(O)c(-c2cc(-c3cccc(Br)c3)on2)c1`
Result: no

Request: Name the outcome recorded for `COc1cccc2cc(C(=O)Nc3ccccc3)c(=N)oc12` in the assay.
Result: no

Request: Identify the outcome logged in this assay for the molecule shown: `Cc1ccc(S(=O)(=O)n2c3ccc(Br)cc3c3nc4ccccc4nc32)cc1`
Result: no

Request: Answer briefly: the call reported for `N[C@H]1CCN(c2c(F)cc3c(=O)c(C(=O)O)cn4c3c2Oc2c-4ccc3c2ccc2ccccc23)C1` in this assay.
Result: no

Request: Tell me the assay call for `Cc1cc(C)nc(NS(=O)(=O)c2ccc(NNc3c4ccccc4nc4c(C(=O)Nc5ccc(S(=O)(=O)N=C(N)N)cc5)cccc34)cc2)n1` please.
Result: no

Request: Per the records of this test, what outcome belongs to `N=C(N)n1nc2c(c1O)CCC2` ?
Result: no

Request: Record request — test call for COC(=O)Cc1c(C2=Nc3ccccc3C2(O)CC(=O)OC)[nH]c2ccccc12 (stereo not drawn)
Result: no

Request: Hi, do you know how `Cc1cc(C2(c3cc(C)c(O)c(C(=O)O)c3)OS(=O)(=O)c3ccccc32)cc(C(=O)O)c1O` came out in this test?
Result: no

Request: Which outcome was assigned to `O=C1/C(=C/c2ccc(O)cc2)CC/C1=C\c1ccc(O)cc1` in this test?
Result: no

Request: Per the assay record, what outcome was assigned to CCC(C)C(CC(=O)N1CCCC1C(=O)NC(C(=O)NC(C(=O)NCC(=O)NC(CC(N)=O)C(=O)NC(C(=O)NC(C(=O)NC(CCCCN)C(N)=O)C(C)CC)C(C)CC)C(C)C)C(C)CC)NC(=O)C(N)C(C)CC (stereo not drawn) (H-I[β3hI]PIVGNIIK-NH2; configuration not given here) ?
Result: no

Request: What did the test return for `O=C(O)CNCc1c2ccccc2nc2ccccc12` ?
Result: no

Request: Kindly provide the recorded test outcome for the following molecule: `NCCCNCCSSCCCCS(=O)O`
Result: no

Request: Identify the outcome logged in this assay for the molecule shown: CCOC(=O)Oc1ccc(C(CNC(C)C)OC(=O)OCC)cc1OC(=O)OCC (stereo not drawn)
Result: no

Request: For this molecule, state the assay outcome: `CCOC(=O)c1c2c(n(-c3ccc(C)cc3)c1C)-c1ccccc1C(=O)C2(C(=O)OCC)C(=O)OCC`
Result: no

Request: Hey, what did the test say about `O=[N+]([O-])c1cc(Cl)cc2cc(Cl)cnc12` ?
Result: no

Request: Any idea what this test logged for `CC(C)[C@H](NC(=O)OCc1ccccc1)C(=O)N[C@H](/C=C/C(=O)OC(C)(C)C)CO` ?
Result: no

Request: Entry c1ccc2c(c1)Sc1ccccc1N2C1CN2CCC1CC2 (stereo not drawn) : call = ?
Result: no

Request: Short answer needed: outcome of this test for Cc1cc(Cl)ccc1NC(=O)CCCC(=O)C1CCC/C1=N\NC(=O)CC#N (stereo not drawn) ?
Result: no

Request: Any idea what this test logged for NC(=O)NCCCC(NC(=O)OCCCCn1ccc(=O)[nH]c1=O)C(=O)O (stereo not drawn) ?
Result: no

Request: What outcome does the record of this test show for COc1ccc(C2c3cc4c(cc3OC(O)(CO)C2C(=O)O)OCO4)c(OC)c1OC.COc1ccc(C2c3cc4c(cc3OC3(O)COC(=O)C23)OCO4)c(OC)c1OC (stereo not drawn) ?
Result: no

Request: Could you please tell me the result logged for `CC(=O)N1CC[N+](C)(CCCCN2c3ccccc3Sc3cc(N=[N+]=[N-])ccc32)CC1` in this assay?
Result: no

Request: # outcome recorded in this test, key = `O=C(CCC(=O)c1ccc(Cl)cc1)NO`
Result: no

Request: // param item: `COC(=O)c1ccc(N/C=C(/C#N)c2ccsc2)cc1` ; yields the recorded call
Result: no

Request: Outcome? `Cc1c(S(=O)(=O)N/C(=N\O)Nc2ccc(Cl)cc2)sc2ccc(Cl)cc12`
Result: no

Request: Called result for `COc1cc(Oc2nc3c(N)cc(C(F)(F)F)cc3nc2-c2ccccc2)cc(OC)c1OC`
Result: no

Request: Can you look up the reported call for `O=C1CN2CCN(CC2)CC(=O)Nc2ccc(cc2)S(=O)(=O)c2ccc(cc2)NC(=O)CN2CCN(CC2)CC(=O)Nc2ccc(cc2)S(=O)(=O)c2ccc(cc2)N1` for me?
Result: no

Request: Outcome? `COc1ccc(/C=C/C(=O)CC(=O)/C=C/c2ccc(OC)cc2)cc1`
Result: no

Request: Tell me the assay call for `Cc1cc(NC(=O)NC(=O)c2ccccc2N(C)C)ccc1Oc1ncc(Br)cn1` please.
Result: yes

Request: Just curious, what result did C=CCN(N=O)C(=O)N(CCCC(NC(C)=O)C(=O)NCc1ccccc1)Cc1ccccc1 (stereo not drawn) get here?
Result: no

Request: Call for entry CCN(CC)CCNc1ccc(C)c2sc3ccccc3c(=O)c12 [LUCANTHONE HYDROCHLORIDE] :
Result: no
